Reference source for all entries: ChEMBL document CHEMBL3885861

Measured PT by item
Species on record: Rattus norvegicus
Test: Open TG-GATES - Regimen: Single
Assay type: toxicity, organism-based, Sprague-Dawley
Design: regimen Single, gender Male, age 6 weeks
Details: in vivo, po, 0 mg/kg, 24 h, tissue Blood, route gavage, dose level Control

CN(C/C=C/C#CC(C)(C)C)Cc1cccc2ccccc12 [TERBINAFINE] : 11.8 s
CCO [ALCOHOL] : 11.6 s
COc1ccc([C@@H]2Sc3ccccc3N(CCN(C)C)C(=O)[C@@H]2OC(C)=O)cc1 [DILTIAZEM] : 14.8 s
NS(=O)(=O)c1cc(C(=O)O)c(NCc2ccco2)cc1Cl [FUROSEMIDE] : 15.9 s
CCN(CC)C(=S)SSC(=S)N(CC)CC : 16.4 s

Now for another entry.
Annotate the molecule CN(C)CCCN1c2ccccc2Sc2ccc(Cl)cc21 [CHLORPROMAZINE] with its measured PT. 11.7 s
